measurement-label: melting point (°C)
Form entry: value (°C) — number only.

Kindly indicate its recorded melting point. Item: C=CC(=O)N1CCC(N2CC(c3cc(C)c4c(c3)Nc3ncnc(N5CCS(=O)(=O)CC5)c3CO4)C2)CC1
200

Annotate the molecule C=CC(=O)N1CCC(N2CC(c3cc(C)c4c(c3)Nc3ncnc(N5CCOCC5)c3CO4)C2)CC1 with its measured melting point.
191

Give melting point for the following molecule: C=CC(=O)N1CC(N2CCC(c3ccc4c(c3)Nc3ncnc(C5=CCOCC5)c3CO4)CC2)C1
243

Give me measured melting point, please, for this molecule: C=CC(=O)N1CC[C@@H](N2CC(c3cc4c(c(C5CC5)c3)O[C@H](C)c3c(ncnc3N3CCS(=O)(=O)CC3)N4)C2)C1 (single isomer, unassigned)
233

Look up and report measured melting point for this entry: C=CC(=O)N1CC(N2CCC(c3ccc4c(c3)Nc3ncnc(N5CCOCC5)c3[C@@H](CC)O4)CC2)C1 (single isomer, unassigned)
124

Tell us which melting point value is on record for CC#CC(=O)N1CCC(N2CC(c3cc(C)c4c(c3)Nc3ncnc(N5CCS(=O)(=O)CC5)c3CO4)C2)CC1
180

// Input: C=CC(=O)N1CC(N2CCC(c3cc(F)c4c(c3)Nc3ncnc(N5CCOCC5)c3[C@H](C)O4)CC2)C1 (single isomer, unassigned) . Output its melting point only.
180

Answer with the recorded melting point of C=CC(=O)N1CC[C@H](N2CC(c3cc4c(c(C5CC5)c3)OCc3c(ncnc3N3CCS(=O)(=O)CC3)N4)C2)C1 (single isomer, unassigned) only.
167

Specify measured melting point for C=CC(=O)N1CC(N2CCC(c3cc4c(c(C)n3)O[C@H](C)c3c(ncnc3N3CCS(=O)(=O)CC3)N4)CC2)C1 (single isomer, unassigned) .
240

Please give measured melting point of the following entry: C=CC(=O)N1CC(N2CCC(c3cc4c(cn3)OCc3c(ncnc3N3CCOCC3)N4)CC2)C1
220

Provide one value: measured melting point of C=CC(=O)N1CC(N2CC[C@H](c3ccc4c(c3)Nc3ncnc(N5CCOCC5)c3CO4)[C@H](C)C2)C1 (single isomer, unassigned)
217

Determine from records and report melting point for C=CC(=O)N1CCC(N2CCC(c3ccc4c(c3)Nc3ncnc(N5CCOCC5)c3CO4)CC2)CC1
211

Consider the molecule C=CC(=O)N1CCC(N2CC(c3cc4c(c(C5CC5)c3)O[C@@H](C)c3c(ncnc3N3CCS(=O)(=O)CC3)N4)C2)C1 (mixture of isomers) . State its measured melting point.
220

Give the reported value of melting point for this record: C=CC(=O)N1CC(N2CCC(c3cc4c(cn3)O[C@@H](C)c3c(ncnc3N3CCOCC3)N4)CC2)C1 (single isomer, unassigned)
253

====

System: RNA polymerase II Serine 5 phosphorylation in A549 cells overexpressing CDK7 mutant (C312S)
Assay: Imaging-based cellular RNA PolII Ser5 phosphorylation assay in A549 cells overexpressing CDK7-mutant (C312S)
Assay type: cell-based, human
Conditions: Homo sapiens, A549, A549 cells overexpressing CDK7 mutant (C312S); read-out: CDK7_ A549 mutant hCDK7(pIC50) (converted)
So I've got a bunch of molecules here, and I need their IC50 values.

Give the reported value of IC50 for this record: C=CC(=O)N1CCC(N2CC(c3cc4c(c(C)n3)OCc3c(ncnc3N3CCS(=O)(=O)CC3)N4)C2)C1 (stereo not drawn)
> 10 µM

Determine from records and report IC50 for CC#CC(=O)N1CCC(N2CC(c3cc(C)c4c(c3)Nc3ncnc(N5CCS(=O)(=O)CC5)c3[C@H](C)O4)C2)CC1 (single isomer, unassigned)
6.76 µM

Find the measured IC50 of CC#CC(=O)N1CCC([C@H]2CC[C@H](c3cc(C)c4c(c3)Nc3ncnc(N5CCS(=O)(=O)CC5)c3[C@@H](C)O4)CC2)CC1 and report it.
> 10 µM

Return the recorded IC50 value; entry: CC#CC(=O)N1CCC(N2CCN(c3cc(C)c4c(c3)Nc3ncnc(N5CCS(=O)(=O)CC5)c3[C@@H](C)O4)CC2)CC1
> 10 µM

Identify IC50 associated with the molecule C=CC(=O)N1CC(N2CCC(c3cc4c(c(C)n3)OCc3c(ncnc3N3CCS(=O)(=O)CC3)N4)CC2)C1
> 10 µM

Provide IC50 value for the following molecule: C=CC(=O)N1CC[C@@H](N2CC(c3cc4c(c(C)n3)OCc3c(ncnc3N3CCS(=O)(=O)CC3)N4)C2)C1 (single isomer, unassigned)
> 10 µM

Tell me its IC50 given C=CC(=O)N1CC[C@H](N2CC(c3cc4c(c(C5CC5)c3)OCc3c(ncnc3N3CCS(=O)(=O)CC3)N4)C2)C1 (single isomer, unassigned) as the entry.
> 10 µM

Assign IC50 to the following record: C=CC(=O)N1CC[C@@H](N2CCC(c3cc(C)c4c(c3)Nc3ncnc(N5CCOCC5)c3CO4)CC2)C1
> 10 µM

Give the measured IC50 for C=CC(=O)N1CC[C@H](N2CC(c3cc(C)c4c(c3)Nc3ncnc(N5CCS(=O)(=O)CC5)c3CO4)C2)C1
~10 µM
